MEASURED PROPERTY: melting point

- COMPOUND: "COc1cc(COc2ccccc2CC(=O)O)ccc1OCc1nc(-c2ccccc2)oc1C"
  RESULT: "165 to 166 °C"
- COMPOUND: "CC(C)N(C(=O)c1ccc(OCCCCCOc2ccc(C(N)=NO)cc2)cc1)C(C)C"
  RESULT: "146 to 149 °C"
- COMPOUND: "CN(C)c1cccc2c(S(=O)(=O)Nc3ccc(Br)nc3)cccc12"
  RESULT: "164 to 165 °C"
- COMPOUND: "COc1c(O)cc(C)c(OC(=O)c2ccccc2)c1OC"
  RESULT: "109 to 111 °C"
- COMPOUND: "O=C(Cl)C=CC=Cc1ccccc1"
  RESULT: "51 to 52 °C"
- COMPOUND: "Cc1ccc(-c2nc(Cl)nc(Cl)c2-c2ccc(Cl)cc2)cc1"
  RESULT: "223 to 225 °C"
- COMPOUND: "COC(=O)C(=COC(F)F)c1ccccc1CBr"
  RESULT: "63 to 67 °C"
- COMPOUND: "COC(=O)c1c(Cc2ccc(S(=O)(=O)NCCO)cc2)c(=O)c2ccc(Cl)cc2n1-c1ccccc1"
  RESULT: "192 to 193 °C"
- COMPOUND: "CN1CCc2ccc(C(=O)CCC(=O)N3CCC(c4ccc(Cl)cc4)CC3)cc2CC1"
  RESULT: "143 to 145 °C"
- COMPOUND: "Cc1nc(N)c2nc3n(c2c1C)C(C)COC3 (stereo not given)"
  RESULT: "264 to 267 °C"
- COMPOUND: "CC#CCCn1ncc2c(OCC)c(C(=O)OCC)c(C)nc21"
  RESULT: "94 to 95 °C"
- COMPOUND: "CS(=O)(=O)c1ccc(C2=C(c3ccccc3)C(=NO)C2)cc1"
  RESULT: "146 to 148 °C"
- COMPOUND: "CN1C[C@H]2Cc3ccc(Cl)cc3[C@H](c3ccc(Cl)cc3)[C@H]2C1 (racemic)"
  RESULT: "133 to 135 °C"
- COMPOUND: "COC(=O)c1ccc(C(=O)CCCOC(C)=O)cc1"
  RESULT: "61 to 62 °C"
- COMPOUND: "O=C(OCc1ccccc1)N1CCC(O)(CNc2ccc(Cl)c(Cl)c2)CC1"
  RESULT: "128 to 130 °C"
- COMPOUND: "CN(CCN=C(NC#N)NCCSCc1csc(NC(=N)N)n1)CCC(c1ccccc1)c1ccccn1 (stereo not given)"
  RESULT: "115 to 116 °C"
- COMPOUND: "CCOC(=O)CC(=O)c1ccncn1"
  RESULT: "52.3 °C"
- COMPOUND: "CC(C)[C@H](C/C=C/C[C@H](C(=O)N1C(=O)OC[C@@H]1Cc1ccccc1)C(C)C)C(=O)N1C(=O)OC[C@@H]1Cc1ccccc1"
  RESULT: "108 to 109 °C"
- COMPOUND: "CC1=NCN(c2cc(Br)cs2)O1"
  RESULT: "66 to 67 °C"
- COMPOUND: "CCOC(=O)C1NC(=O)C1OC (stereo not given)"
  RESULT: "91 to 92 °C"

* * *

Entries and their melting point

- SMILES DATA: "C#CCOc1ccc(COC(C)=O)cc1OC"
  melting point: "69 to 71 °C"
- SMILES DATA: "CC(C)NN=C(N)Nc1c(Cl)cccc1Cl"
  melting point: "227 to 228 °C"
- SMILES DATA: "CC1(C)Cc2c(c(O)cc3c2C(c2cccc(Br)c2)=NCC3(C)C)O1"
  melting point: "230 to 235 °C"
